Each recorded value in this set is attributed to ChEMBL document CHEMBL1961873.

We begin with a simple list: items and their reported inhibition.
- SYSTEM UNDER TEST: Interleukin-1 receptor-associated kinase 4 (Homo sapiens) (UniProt Q9NWZ3)
- Sequence (whole entry): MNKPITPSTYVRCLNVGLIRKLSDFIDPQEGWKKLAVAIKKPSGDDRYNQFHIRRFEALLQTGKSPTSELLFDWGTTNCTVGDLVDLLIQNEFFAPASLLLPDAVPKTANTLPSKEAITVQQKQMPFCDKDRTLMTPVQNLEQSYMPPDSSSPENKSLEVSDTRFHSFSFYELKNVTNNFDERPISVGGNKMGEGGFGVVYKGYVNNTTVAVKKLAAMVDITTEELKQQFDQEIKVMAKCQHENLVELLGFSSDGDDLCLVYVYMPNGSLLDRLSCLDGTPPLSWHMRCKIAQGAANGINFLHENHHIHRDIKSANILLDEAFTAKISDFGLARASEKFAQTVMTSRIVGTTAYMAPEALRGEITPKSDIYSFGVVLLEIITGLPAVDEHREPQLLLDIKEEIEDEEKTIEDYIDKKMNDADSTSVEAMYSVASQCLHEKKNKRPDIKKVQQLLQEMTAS
- CONDITIONS USED: at 1 µM

Example compounds with recorded inhibition:
- ENTRY SMILES: "C[C@@H](Oc1cc(-n2cnc3ccc(OC[C@@H](O)CO)cc32)sc1C(N)=O)c1ccccc1Cl"
  RESULT: "-0.05%"
- ENTRY SMILES: "Cc1ccc2c(-c3ccnc(Nc4ccc5c(c4)OCCO5)n3)c(-c3ccc(C(F)(F)F)cc3)nn2n1"
  RESULT: "-0.5%"
- ENTRY SMILES: "NS(=O)(=O)c1ccc(Nc2cc(-c3cccc(O)c3)n[nH]2)cc1"
  RESULT: "2.85%"
- ENTRY SMILES: "COc1ccc2ncnc(Nc3ccc(OCc4ccccc4)cc3)c2c1"
  RESULT: "0.86%"
- ENTRY SMILES: "CCn1c(-c2nonc2N)nc2ccc(F)cc21"
  RESULT: "2.93%"

Input line: Form field - read-out: inhibition; system: Interleukin-1 receptor-associated kinase 4 (Homo sapiens) (UniProt Q9NWZ3); submitted item: `Nc1nccc(-c2c(-c3ccc(F)cc3)nn3cc(C(F)(F)F)ccc23)n1`;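 further: mean inhibition values, from the GSK PKIS dataset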
Output line: 0.46%

Input line: Then what about the compound `N#Cc1cccc(Nc2nccc(-c3cnn4ncccc34)n2)c1` ?
Output line: 15.1%

Input line: Then what about the compound `NC(=O)c1sc(-n2cnc3ccccc32)cc1OCc1ccccc1Br` ?
Output line: 2.57%

Input line: Then what about the compound `Cc1ccc(O)cc1Nc1ccnc2ccc(S(C)(=O)=O)cc12` ?
Output line: 3.6%

Input line: Then what about the compound `NS(=O)(=O)c1ccc(NC=C2C(=O)Nc3ccc4ncsc4c32)cc1` ?
Output line: 4.43%

Input line: Then what about the compound `NS(=O)(=O)c1ccc(-c2cc3ccncc3cc2OCc2ccccc2)cc1` ?
Output line: 1.31%
